Measured growth values are reported for all entries that follow.
tested on: SF-539 CNS; assay: NCI-60 one-dose screen, 48 h (100 = growth as untreated, 0 = no growth, -100 = all killed); conditions: 10 µM unless noted
About 83,000 compounds went through this panel and 20% of them were active in at least one assay; those are over-represented in the sample as a whole.
Reply with just the number (in %).

Measured on SF-539 CNS, N#Cc1ccc(NC(=O)Nc2ccc(Cc3ccc(NC(=O)Nc4ccc(C#N)cc4)cc3)cc2)cc1 has a documented growth of 50.7

###

tested on: HCC-2998 colon; assay: NCI-60 one-dose screen, 48 h (100 = growth as untreated, 0 = no growth, -100 = all killed); conditions: 10 µM unless noted
This is part of a sample that, as a whole, favours compounds with a hit. Of some 83,000 tested, about 20% had one in any assay.
Quick reference: growth of the listed items.
Please give a number only; it is taken to be in %.

Examples with answers:
{"COMPOUND": "COc1ccc(C2CC(=O)Nc3c2c(C)nn3-c2nc3ccccc3[nH]2)cc1 (stereo unspecified)", "UNITS_SYMBOL": "%", "VALUE_MEASURED": 112}
{"COMPOUND": "COc1ccc2nc3cc(Cl)ccc3c(N3CCN(c4nccc(NCc5ccccc5)n4)CC3)c2c1", "UNITS_SYMBOL": "%", "VALUE_MEASURED": 84.3}
{"COMPOUND": "CCC(=O)OCc1cccc(OC)c1", "UNITS_SYMBOL": "%", "VALUE_MEASURED": 101}
{"COMPOUND": "CCCCCC(=O)N(CCCC)CCCC", "UNITS_SYMBOL": "%", "VALUE_MEASURED": 111}
{"COMPOUND": "O=C1C(Cl)=C(Cl)C(=O)c2c1nc1n2CCCC1", "UNITS_SYMBOL": "%", "VALUE_MEASURED": 52.5}
{"COMPOUND": "CCNS(=O)(=O)c1ncnc2nc[nH]c12", "UNITS_SYMBOL": "%", "VALUE_MEASURED": 114}
{"COMPOUND": "COc1cc(OC)c(/C=C/c2cc[n+](C)c3ccccc23)c(OC)c1", "UNITS_SYMBOL": "%", "VALUE_MEASURED": 10}
{"COMPOUND": "CCCCCN(CCCCC)CCC[C@@H](C)[C@H]1CC[C@H]2[C@@H]3[C@H](OCCCN)C[C@@H]4C[C@H](OCCCN)CC[C@]4(C)[C@H]3C[C@H](OCCCN)[C@]12C", "UNITS_SYMBOL": "%", "VALUE_MEASURED": 59.6}
{"COMPOUND": "C=C1CCC2C3(C)COC(c4ccccc4Br)OC3CCC2(C)C1C/C=C1/C(=O)OCC1OC(C)=O (stereo unspecified)", "UNITS_SYMBOL": "%", "VALUE_MEASURED": 55.4}
{"COMPOUND": "CC/C(=C(\\c1ccccc1)c1ccc(OCCNC)cc1)c1ccccc1", "UNITS_SYMBOL": "%", "VALUE_MEASURED": -99.7}

Record N#Cc1c2c(nc3n[nH]c(N)c13)CCCC2 , field growth: 92.6

###

system: PC-3 prostate; test: NCI-60 one-dose screen, 48 h (100 = growth as untreated, 0 = no growth, -100 = all killed); settings: 10 µM unless noted
The panel holds about 83,000 compounds, 20% with a hit somewhere; the sample as a whole holds those more often.
// n strictly below 60% in growth; y otherwise

// query I'd appreciate it if you could say whether COc1cnc2c(c1)C(=O)c1c-2n(CCCN2CCCC2)c(=O)c2cc([N+](=O)[O-])ccc12 has growth at least equal to 60%.
// result n

// query Could you verify whether the entry O=C(O)c1ccc2c(c1Sc1ccccc1)C(=O)c1ccccc1C2=O shows growth of no less than 60%?
// result y

// query // inclusive: growth at least 60%? input: CCCCCCCCCc1cc(CN2CCCCC2)c(O)c(CN2CCCCC2)c1
// result n

// query Is growth for O=C1c2cc3c(cc2-c2c1c1cc(F)c(F)cc1c(=O)n2C[C@H](O)CO)OCO3 at or above 60%?
// result n

###

system: SK-MEL-2 melanoma; test: NCI-60 one-dose screen, 48 h (100 = growth as untreated, 0 = no growth, -100 = all killed); details: 10 µM unless noted
The panel holds about 83,000 compounds, 20% with a hit somewhere; the sample as a whole holds those more often.
MEASUREMENT_LABEL: growth (%)
Express your answer in %, writing the number without its unit.

Would you please look over these solved cases?
{"COMPOUND": "COc1cc(OC)c(/C=C/S(=O)(=O)Cc2ccc(OC)c(N)n2)c(OC)c1", "MEASUREMENT_LABEL": "growth", "VALUE_MEASURED": 8.32}
{"COMPOUND": "Cc1cc(Nc2nc(-c3cccnc3)nc3ccccc23)n[nH]1", "MEASUREMENT_LABEL": "growth", "VALUE_MEASURED": 38.8}

Clc1cccc(Nc2nc(Nc3cnc4ccccc4c3)c3[nH]cnc3n2)c1 has a reported growth of 81.1

growth reported for this compound Cc1noc(C)c1-c1cc(O)cc(C(O)c2ccccc2)c1 (stereo unspecified) : 60.4

CCCCCCCCSC1=CC(=O)C(OC)=C(OC)C1=O yielded growth of 26.3

According to the records, this compound Clc1nc(Cl)c2c3c(sc2n1)CCCC3 displays growth of 20

###

Listed next: entries and their corresponding growth.
Test system: M14 melanoma
Experiment: NCI-60 one-dose screen, 48 h (100 = growth as untreated, 0 = no growth, -100 = all killed)
Settings: 10 µM unless noted
Procedure: Growth inhibition of the M14 human tumor cell line is measured as a screen for anti-cancer activity. Cells are grown in 96 well plates and exposed to the test compound for 48 hours. Compounds are tested at a single concentration, which is 10^-5 M for most compounds. The reported endpoint is percent growth (GI% or GIPRCNT), where numbers from 0 - 100% represent growth inhibition, and numbers from -100% - 0 represent cell death. For example, a value of 40 represents 60% growth inhibition. […]
Compounds without any hit were thinned out: in the full panel of roughly 83,000, 20% have a hit.
Lab book: enter the figure in %, no units written.

Example compounds with recorded growth:
{"COMPOUND": "CC/C=C\\C[C@H](O)C/C=C1/C(=O)C=C[C@@H]1C/C=C\\CCCC(=O)NC", "UNITS_SYMBOL": "%", "VALUE_MEASURED": 6.09}
{"COMPOUND": "COc1ccc(C(=O)COc2ccc(/C=C3\\Oc4ccc(Cl)cc4C3=O)cc2)cc1", "UNITS_SYMBOL": "%", "VALUE_MEASURED": 104}
{"COMPOUND": "COc1cc(-c2c3c(nc4c2c(C)nn4-c2ccccc2)-c2ccccc2C(=O)C3=O)cc(OC)c1OC", "UNITS_SYMBOL": "%", "VALUE_MEASURED": 90}
{"COMPOUND": "CCOC(=O)c1c2c(n3ccc(NC(=O)CCN(CC)CC)cc13)C(=O)c1ncccc1C2=O", "UNITS_SYMBOL": "%", "VALUE_MEASURED": 49.7}

Please turn your attention to the following entry.
Record CN1Cc2c(cc(CN3CCCCC3)n2C)C(c2ccc(Br)cc2)C1 (stereo not given) , field growth: 14.1

###

test system: A498 renal; experiment: NCI-60 one-dose screen, 48 h; conditions: 10 µM unless noted
About 83,000 compounds went through this panel and 20% of them were active in at least one assay; those are over-represented in the sample as a whole. The source made the active and inactive calls. Rule for the calls: active = growth percent below 10; inactive = the rest.
Permitted responses: Y for active, N for inactive

{"COMPOUND": "C=C1CC2(OC1=O)C(=O)N(CCCCCCCCCCCCN1C(=O)C3(CC(=C)C(=O)O3)c3ccccc31)c1ccccc12 (stereo not drawn)", "TARGET_UNDER_TEST": "A498 renal", "ASSIGNED_LABEL": "N"}
{"COMPOUND": "O=C1/C(=C/c2ccccc2)CN(CCC(=O)N2C/C(=C\\c3ccccc3)C(=O)/C(=C/c3ccccc3)C2)C/C1=C\\c1ccccc1", "TARGET_UNDER_TEST": "A498 renal", "ASSIGNED_LABEL": "N"}
{"COMPOUND": "O=C(CN1CCOCC1)Nc1ccc(Cn2nnc3c2C(=O)c2nnn(Cc4ccc(NC(=O)CN5CCOCC5)cc4)c2C3=O)cc1", "TARGET_UNDER_TEST": "A498 renal", "ASSIGNED_LABEL": "Y"}
{"COMPOUND": "O=C(/C=C/c1ccc(Cl)cc1)c1ccc(O)c(CN2CCN(c3cc4c(cc3F)c(=O)c(C(=O)O)cn4C3CC3)CC2)c1", "TARGET_UNDER_TEST": "A498 renal", "ASSIGNED_LABEL": "N"}

// query Lab log entry: Cc1noc(C)c1-c1cc(O)cc(C(O)c2ccccc2)c1 (stereo not drawn) — outcome as called in the assay?
// result Y

// query Test call for this compound, please: CCOC(=O)c1c2ncccc2n2c(=O)n(-c3ccc(Cl)cc3)nnc12
// result N

// query For CS(=O)(=O)c1ccc(-c2cnc3ccc(-c4cccc(S(C)(=O)=O)c4)nn23)cc1 , what call appears in the results of this test?
// result Y
